system: M14 melanoma; experiment: NCI tumour cell line growth inhibition, 48 h; in the data active = GI50 below about 0.43 µM; inactive = the rest
Thanks in advance; please answer with one of these: y for active, n for inactive

Lookup: Assay outcome for COc1ccc(OC)c(C2SCC(=O)N2NC(=O)C(O)c2ccccc2)c1 (stereo not drawn) : what was it?
Found: n

Lookup: Assay outcome for CCN(CCO)CC(C)Nc1ccc([N+](=O)[O-])c2sc3ccccc3c(=O)c12 (stereo not drawn) : what was it?
Found: n

Lookup: Assay outcome for `C[C@@H]1O[C@@H](OC[C@H]2O[C@@H](OCCc3ccc(O)c(O)c3)[C@H](O)[C@@H](O)[C@@H]2OC(=O)/C=C/c2ccc(O)c(O)c2)[C@H](O)[C@H](O)[C@H]1O` : what was it?
Found: n

Lookup: Assay outcome for `COc1ccc(/C=N/NC(=O)Cn2c(-c3ccc(S(C)(=O)=O)cc3)nc3cc(Cl)ccc32)cc1` : what was it?
Found: n

Lookup: Assay outcome for CC1=CC(=O)C(O)C2(C)C1CC(O)C13COC4(C)C(OC(=O)C41)C(O)C23 (stereo not drawn) : what was it?
Found: n

Lookup: Assay outcome for CCN1C(=O)N(CC)C2C1NN=c1s/c(=C\c3ccccc3Br)c(=O)n12 (stereo not drawn) : what was it?
Found: y

Lookup: Assay outcome for COc1ccc2c(c1)OC1=C(C(=O)OC1)C2c1cc(OC)c2c(c1)OCO2 (stereo not drawn) : what was it?
Found: y

Lookup: Assay outcome for COc1ccc(C2[C@@H](Cl)C(=O)N2c2cc(OC)c(OC)c(OC)c2)cc1Cl (stereo partly drawn) : what was it?
Found: y
